Each entry below carries its recorded INHIBITION.
Test system: Plasmodium berghei
Test: Screen against P. berghei liver stage (PbLuc), transformed with Luciferase, at 2uM
Format: functional, HepG2
Conditions: tested at 2 uM
Out of some 68,000 compounds screened, about 2,700 (4%) showed an effect of 50% or more. The sample as a whole holds a higher share of strong results than the screen did.
Give the quantity in %, number only.

{"columns": ["COMPOUND", "INHIBITION, %"],
 "data": [
  ["CCc1cc(CNC(=O)N(C2CC2)C(C)c2ccco2)on1 (stereo not given)", -27.89]
]}

Challenge: Recall the recorded INHIBITION for `CN(CC(N)=O)S(=O)(=O)c1ccc(F)cc1F` with Plasmodium berghei and state it.
Response given: 0.44

Challenge: Also check `CN(C)S(=O)(=O)N1C[C@@H]2C[C@H](C(=O)NCc3ccccc3)[C@H](C1)O2`
Response given: -32.96

Challenge: Also check `CC(C)N1[C@H](CN2CCCC2)C[C@@H]2CN(C(=O)c3ccoc3)CC[C@@H]21`
Response given: 50.32
